The values you see were collected from patent US20150376216A1.

target: melanoma line MDAMB-435; assay: Boyden chamber migration test, MDAMB-435; assay type: cell-based, human; details: support Laminin, 24 hours, read-out: Inhibition constant Ki, migration
recordedMetric: Ki (nM)
Report the figure in nM without appending any unit label.

Problem: Entry CC1(C)O[C@H]2[C@@H]([C@H]3COC(C)(C)O3)O[P@](=O)(c3ccccc3)[C@@H](OC(=O)c3ccccc3)[C@H]2O1 [Compound 4.2a] has what Ki?
Result: 34

----------
biological target: epidermoid cancer line A431; assay: Boyden chamber migration test, A431; format: cell-based, human; conditions: support Laminin, 24 hours, read-out: Inhibition constant Ki, migration
recordedMetric: Ki (nM)
Report the figure in nM without appending any unit label.

Problem: Entry CC(=O)N[C@@H]1[C@H]2OC(C)(C)O[C@H]2[C@@H]([C@H]2COC(C)(C)O2)O[P@@]1(=O)c1ccccc1 [Compound 5.6d] has what Ki?
Result: 13

----------
test system: Gli4 GBM stem cells; test: Boyden chamber migration test, Gli4; type: cell-based, human; details: support Laminin, 24 hours, read-out: Inhibition constant Ki, migration
recordedMetric: pKi
Scale note: pKi = -log10(concentration in M).

Problem: Entry O=[P@@]1(c2ccccc2)O[C@H](COCc2ccccc2)[C@@H](OCc2ccccc2)[C@H](OCc2ccccc2)[C@H]1O [Compound 3.48a] has what pKi?
Result: 7.96

----------
molecular target: epidermoid cancer line A431; experiment: Boyden chamber migration test, A431; assay type: cell-based, human; conditions: support Fibronectin, 24 hours, read-out: Inhibition constant Ki, migration
recordedMetric: pKi
Scale note: pKi = -log10(concentration in M).

Problem: Entry CC(=O)N[C@@H]1[C@H]2OC(C)(C)O[C@H]2[C@@H]([C@H]2COC(C)(C)O2)O[P@@]1(=O)c1ccccc1 has what pKi?
Result: 8.10

----------
tested on: Gli7 GBM stem cells; assay: Boyden chamber migration test, Gli7; assay type: cell-based, human; conditions: support Vitronectin, 24 hours, read-out: Inhibition constant Ki, migration
recordedMetric: pKi
Scale note: pKi = -log10(concentration in M).

Problem: Entry O=[P@@]1(c2ccccc2)O[C@H](COCc2ccccc2)[C@@H](OCc2ccccc2)[C@H](OCc2ccccc2)[C@H]1O [Compound 3.48a] has what pKi?
Result: 6.43

----------
tested on: Gli4 GBM stem cells; assay: Boyden chamber migration test, Gli4; type: cell-based, human; conditions: support Fibronectin, 24 hours, read-out: Inhibition constant Ki, migration
recordedMetric: Ki (nM)
Report the figure in nM without appending any unit label.

Problem: Entry O=[P@@]1(c2ccccc2)O[C@H](COCc2ccccc2)[C@@H](OCc2ccccc2)[C@H](OCc2ccccc2)[C@H]1O [Compound 3.48a] has what Ki?
Result: 1

----------
target: SNB75 human GBM line; assay: Boyden chamber migration test, SNB75; format: cell-based; settings: SNB75; support Fibronectin; 24 hours; read-out: Inhibition constant Ki, migration
recordedMetric: Ki
// unit must come after the numeric part

Problem: Entry O=[P@@]1(c2ccccc2)O[C@H](COCc2ccccc2)[C@@H](OCc2ccccc2)[C@H](OCc2ccccc2)[C@H]1O [Compound 3.48a] has what Ki?
Result: 0.027 µM

----------
molecular target: SNB75 human GBM line; test: Boyden chamber migration test, SNB75; type: cell-based; details: SNB75; support Laminin; 24 hours; read-out: Inhibition constant Ki, migration
recordedMetric: Ki (µM)
Report the figure in µM without appending any unit label.

Problem: Entry O=[P@@]1(c2ccccc2)O[C@H](COCc2ccccc2)[C@@H](OCc2ccccc2)[C@H](OCc2ccccc2)[C@H]1O [Compound 3.48a] has what Ki?
Result: 23
